# IC50 measurements, system: Trans-cinnamate 4-monooxygenase (Populus kitakamiensis)
# Sequence (Q43054 whole entry): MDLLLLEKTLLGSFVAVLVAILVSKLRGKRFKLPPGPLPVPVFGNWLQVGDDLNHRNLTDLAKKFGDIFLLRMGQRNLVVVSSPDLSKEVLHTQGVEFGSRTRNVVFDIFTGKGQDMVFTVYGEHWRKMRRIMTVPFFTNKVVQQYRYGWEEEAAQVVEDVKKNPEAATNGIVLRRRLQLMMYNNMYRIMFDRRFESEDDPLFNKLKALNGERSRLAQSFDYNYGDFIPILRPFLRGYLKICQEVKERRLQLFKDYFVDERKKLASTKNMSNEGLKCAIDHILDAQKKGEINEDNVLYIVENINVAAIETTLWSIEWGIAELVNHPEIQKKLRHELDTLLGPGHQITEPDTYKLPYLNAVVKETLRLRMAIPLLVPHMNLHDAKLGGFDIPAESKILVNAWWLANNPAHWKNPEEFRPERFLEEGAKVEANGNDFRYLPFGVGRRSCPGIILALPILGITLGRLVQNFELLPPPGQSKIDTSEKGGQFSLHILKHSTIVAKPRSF
endpoint_label: IC50

| mol | observed_result |
| --- | --- |
| Nn1c(S)nnc1-c1ccccc1 | 0.32 µM |
| Nn1c(-c2ccc(O)cc2)n[nH]c1=S | > 100 µM |
| Nn1c(-c2cccnc2)n[nH]c1=S | 51 µM |

Data origin, for the record: ChEMBL document CHEMBL3045210
